- Tested on: WSU-NHL (B-Cell Non-Hodgkin's Lymphoma)
- Experimental Protocol: Bliss excess, mean over the matrix (fraction); higher = more synergy
Provide the recorded Bliss excess for the entries that follow.

Bliss excess reported for this molecule CN(CCO)CC[C@H](CSc1ccccc1)Nc1ccc(S(=O)(=O)NC(=O)c2ccc(N3CCC([C@@H](O)c4ccccc4-c4ccc(Cl)cc4)CC3)cc2)cc1S(=O)(=O)C(F)(F)F [AZD4320] + Cn1cnc2c(F)c(Nc3ccc(Br)cc3Cl)c(C(=O)NOCCO)cc21 [Selumetinib] (first compound max 1 µM, 7x7, partner max 3 µM) : -0.0491

Bliss excess reported for this molecule COc1nnc2ccc(N3CCC(c4ccc(OCCN5CCN(C)C(=O)[C@H]5C)cc4)CC3)nn12 [AZD5153] + CC1(C)CCC(CN2CCN(c3ccc(C(=O)NS(=O)(=O)c4ccc(NCC5CCOCC5)c([N+](=O)[O-])c4)c(Oc4cnc5[nH]ccc5c4)c3)CC2)=C(c2ccc(Cl)cc2)C1 [Venetoclax] (first compound max 1 µM, 7x7, partner max 1 µM) : 0.0355

Bliss excess reported for this molecule COc1nnc2ccc(N3CCC(c4ccc(OCCN5CCN(C)C(=O)[C@H]5C)cc4)CC3)nn12 [AZD5153] + Cn1cnc2c(F)c(Nc3ccc(Br)cc3Cl)c(C(=O)NOCCO)cc21 [Selumetinib] (first compound max 1 µM, 7x7, partner max 10 µM) : 0.0023

Bliss excess reported for this molecule CC1(C)CCC(CN2CCN(c3ccc(C(=O)NS(=O)(=O)c4ccc(NCC5CCOCC5)c([N+](=O)[O-])c4)c(Oc4cnc5[nH]ccc5c4)c3)CC2)=C(c2ccc(Cl)cc2)C1 [Venetoclax] + CN(C)CCCOc1ccc(-c2ccc3ncc4c(c3c2)n(C2CCOCC2)c(=O)n4C)cn1 [AZD0156] (first compound max 1 µM, 7x7, partner max 1 µM) : -0.0402

Bliss excess reported for this molecule NC1(C(=O)N[C@@H](CCO)c2ccc(Cl)cc2)CCN(c2ncnc3[nH]ccc23)CC1 [Capivasertib] + C[C@@H]1COCCN1C2=NC(=NC(=C2)C3(CC3)[S@](=N)(=O)C)C4=C5C=CNC5=NC=C4 [AZD6738] (first compound max 10 µM, 7x7, partner max 10 µM) : -0.05

Bliss excess reported for this molecule Cc1c2c(nn1C)CSCc1cc(n(C)n1)CSc1cc(c3ccccc3c1)OCCCc1c(C(=O)O)n(C)c3c-2c(Cl)ccc13 [AZD5991] + Cn1cnc2c(F)c(Nc3ccc(Br)cc3Cl)c(C(=O)NOCCO)cc21 [Selumetinib] (first compound max 1 µM, 7x7, partner max 3 µM) : -0.0489

Bliss excess reported for this molecule NC1(C(=O)N[C@@H](CCO)c2ccc(Cl)cc2)CCN(c2ncnc3[nH]ccc23)CC1 [Capivasertib] + CC(=O)c1c(C)c2cnc(Nc3ccc(N4CCNCC4)cn3)nc2n(C2CCCC2)c1=O [Palbociclib] (first compound max 10 µM, 7x7, partner max 10 µM) : -0.0671

* * *

- Tested on: BFTC-909 (Kidney Carcinoma)
- Experimental Protocol: Bliss excess, mean over the matrix (fraction); higher = more synergy
Property: Bliss excess
Just the number, please.

Bliss excess reported for this compound CC(=O)c1c(C)c2cnc(Nc3ccc(N4CCNCC4)cn3)nc2n(C2CCCC2)c1=O [Palbociclib] + CN(CC[C@H](CSC1=CC=CC=C1)NC2=C(C=C(C=C2)S(=O)(=O)NC(=O)C3=CC=C(C=C3)N4CCC(CC4)[C@H](C5=CC=CC=C5C6=CC=C(C=C6)Cl)O)S(=O)(=O)C(F)(F)F)CCO [AZD4320] (first compound max 10 µM, 7x7, partner max 1 µM) : -0.0576

Bliss excess reported for this compound CC1(C)CCC(CN2CCN(c3ccc(C(=O)NS(=O)(=O)c4ccc(NCC5CCOCC5)c([N+](=O)[O-])c4)c(Oc4cnc5[nH]ccc5c4)c3)CC2)=C(c2ccc(Cl)cc2)C1 [Venetoclax] + Cn1cnc2c(F)c(Nc3ccc(Br)cc3Cl)c(C(=O)NOCCO)cc21 [Selumetinib] (first compound max 1 µM, 7x7, partner max 3 µM) : -0.0315

Bliss excess reported for this compound COc1cccc(OCCCN)c1-c1cc(Nc2cnc(C#N)cn2)n[nH]1 [Prexasertib] + O=C(c1cc(Cc2n[nH]c(=O)c3ccccc23)ccc1F)N1CCN(C(=O)C2CC2)CC1 [Olaparib] (first compound max 1 µM, 7x7, partner max 10 µM) : -0.0109

Bliss excess reported for this compound COc1cccc(OCCCN)c1-c1cc(Nc2cnc(C#N)cn2)n[nH]1 [Prexasertib] + Cc1cc2ncnn2cc1Nc1ncc2c(n1)n(C1CCOCC1)c(=O)n2C [AZD7648] (first compound max 1 µM, 7x7, partner max 10 µM) : 0.0182

* * *

- System: MHH-CALL-2 (B-Lymphoblastic Leukemia)
- Experimental Protocol: combination Emax (second highest fraction inhibited in the dose matrix, 72 h); higher = more inhibition; extreme values may be limits of the assay
Provide the recorded combination Emax for the entries that follow.
Just the number, please.

combination Emax reported for this molecule COc1nnc2ccc(N3CCC(c4ccc(OCCN5CCN(C)C(=O)[C@H]5C)cc4)CC3)nn12 [AZD5153] + Cc1c2c(nn1C)CSCc1cc(n(C)n1)CSc1cc(c3ccccc3c1)OCCCc1c(C(=O)O)n(C)c3c-2c(Cl)ccc13 [AZD5991] (first compound max 1 µM, 7x7, partner max 1 µM) : 1

combination Emax reported for this molecule CN(CCO)CC[C@H](CSc1ccccc1)Nc1ccc(S(=O)(=O)NC(=O)c2ccc(N3CCC([C@@H](O)c4ccccc4-c4ccc(Cl)cc4)CC3)cc2)cc1S(=O)(=O)C(F)(F)F [AZD4320] + Cc1cc2ncnn2cc1Nc1ncc2c(n1)n(C1CCOCC1)c(=O)n2C [AZD7648] (first compound max 1 µM, 7x7, partner max 10 µM) : 0.516

combination Emax reported for this molecule CC(=O)c1c(C)c2cnc(Nc3ccc(N4CCNCC4)cn3)nc2n(C2CCCC2)c1=O [Palbociclib] + CC1(C)CCC(CN2CCN(c3ccc(C(=O)NS(=O)(=O)c4ccc(NCC5CCOCC5)c([N+](=O)[O-])c4)c(Oc4cnc5[nH]ccc5c4)c3)CC2)=C(c2ccc(Cl)cc2)C1 [Venetoclax] (first compound max 10 µM, 7x7, partner max 1 µM) : 0.155

combination Emax reported for this molecule COc1nnc2ccc(N3CCC(c4ccc(OCCN5CCN(C)C(=O)[C@H]5C)cc4)CC3)nn12 [AZD5153] + CC1(C)CCC(CN2CCN(c3ccc(C(=O)NS(=O)(=O)c4ccc(NCC5CCOCC5)c([N+](=O)[O-])c4)c(Oc4cnc5[nH]ccc5c4)c3)CC2)=C(c2ccc(Cl)cc2)C1 [Venetoclax] (first compound max 1 µM, 7x7, partner max 1 µM) : 0.429

combination Emax reported for this molecule NC1(C(=O)N[C@@H](CCO)c2ccc(Cl)cc2)CCN(c2ncnc3[nH]ccc23)CC1 [Capivasertib] + C[C@@H]1COCCN1C2=NC(=NC(=C2)C3(CC3)[S@](=N)(=O)C)C4=C5C=CNC5=NC=C4 [AZD6738] (first compound max 10 µM, 7x7, partner max 10 µM) : 0.954

combination Emax reported for this molecule Cc1c2c(nn1C)CSCc1cc(n(C)n1)CSc1cc(c3ccccc3c1)OCCCc1c(C(=O)O)n(C)c3c-2c(Cl)ccc13 [AZD5991] + CCN(CCO)CCCOc1ccc2c(Nc3cc(CC(=O)Nc4cccc(F)c4)[nH]n3)ncnc2c1 [AZD2811] (first compound max 1 µM, 7x7, partner max 1 µM) : 0.987

* * *

- Tested on: L-428 (Hodgkin's Lymphoma)
- Experimental Protocol: Bliss excess, mean over the matrix (fraction); higher = more synergy
Property: Bliss excess
Just the number, please.

Bliss excess reported for this compound CN(CCO)CC[C@H](CSc1ccccc1)Nc1ccc(S(=O)(=O)NC(=O)c2ccc(N3CCC([C@@H](O)c4ccccc4-c4ccc(Cl)cc4)CC3)cc2)cc1S(=O)(=O)C(F)(F)F [AZD4320] + CN(C)CCCOc1ccc(-c2ccc3ncc4c(c3c2)n(C2CCOCC2)c(=O)n4C)cn1 [AZD0156] (first compound max 1 µM, 7x7, partner max 1 µM) : 0.0464

Bliss excess reported for this compound COc1cccc(OCCCN)c1-c1cc(Nc2cnc(C#N)cn2)n[nH]1 [Prexasertib] + CCc1c2c(nc3ccc(O)cc13)-c1cc3c(c(=O)n1C2)COC(=O)[C@]3(O)CC [SN-38] (first compound max 1 µM, 7x7, partner max 0.3 µM) : -0.0235

Bliss excess reported for this compound CN(CCO)CC[C@H](CSc1ccccc1)Nc1ccc(S(=O)(=O)NC(=O)c2ccc(N3CCC([C@@H](O)c4ccccc4-c4ccc(Cl)cc4)CC3)cc2)cc1S(=O)(=O)C(F)(F)F [AZD4320] + C=CCn1c(=O)c2cnc(Nc3ccc(N4CCN(C)CC4)cc3)nc2n1-c1cccc(C(C)(C)O)n1 [AZD1775] (first compound max 1 µM, partner max 1 µM) : 0.0961

* * *

- Test system: SNU-16 (Gastric Carcinoma)
- Experimental Protocol: Bliss excess, mean over the matrix (fraction); higher = more synergy
# binarize Bliss excess: threshold 0.02 inclusive, high side class 1, low side class 0

Exam item: decide whether the reported Bliss excess for Cc1c2c(nn1C)CSCc1cc(n(C)n1)CSc1cc(c3ccccc3c1)OCCCc1c(C(=O)O)n(C)c3c-2c(Cl)ccc13 [AZD5991] + C1CN(CCC1(C(=O)N[C@@H](CCO)C2=CC=C(C=C2)Cl)N)C3=NC=NC4=C3C=CN4 [Capivasertib] (first compound max 1 µM, 7x7, partner max 3 µM) is at least 0.02. class 0

Exam item: decide whether the reported Bliss excess for CC1(C)CCC(CN2CCN(c3ccc(C(=O)NS(=O)(=O)c4ccc(NCC5CCOCC5)c([N+](=O)[O-])c4)c(Oc4cnc5[nH]ccc5c4)c3)CC2)=C(c2ccc(Cl)cc2)C1 [Venetoclax] + C1CN(CCC1(C(=O)N[C@@H](CCO)C2=CC=C(C=C2)Cl)N)C3=NC=NC4=C3C=CN4 [Capivasertib] (first compound max 1 µM, 7x7, partner max 3 µM) is at least 0.02. class 0

Exam item: decide whether the reported Bliss excess for Cc1c2c(nn1C)CSCc1cc(n(C)n1)CSc1cc(c3ccccc3c1)OCCCc1c(C(=O)O)n(C)c3c-2c(Cl)ccc13 [AZD5991] + C[C@@H]1COCCN1C2=NC(=NC(=C2)C3(CC3)[S@](=N)(=O)C)C4=C5C=CNC5=NC=C4 [AZD6738] (first compound max 1 µM, 7x7, partner max 10 µM) is at least 0.02. class 0

Exam item: decide whether the reported Bliss excess for COc1cc2ncnc(Nc3ccc(F)c(Cl)c3)c2cc1OCCCN1CCOCC1 [Gefitinib] + CC(C)n1c(=O)n(C)c2cnc3cc(F)c(-c4ccc(OCCCN5CCCCC5)nc4)cc3c21 [AZD1390] (first compound max 10 µM, 7x7, partner max 0.3 µM) is at least 0.02. class 0

Exam item: decide whether the reported Bliss excess for CN(CCO)CC[C@H](CSc1ccccc1)Nc1ccc(S(=O)(=O)NC(=O)c2ccc(N3CCC([C@@H](O)c4ccccc4-c4ccc(Cl)cc4)CC3)cc2)cc1S(=O)(=O)C(F)(F)F [AZD4320] + C1CN(CCC1(C(=O)N[C@@H](CCO)C2=CC=C(C=C2)Cl)N)C3=NC=NC4=C3C=CN4 [Capivasertib] (first compound max 1 µM, 7x7, partner max 3 µM) is at least 0.02. class 0

Exam item: decide whether the reported Bliss excess for COc1cccc2c1C(=O)c1c(O)c3c(c(O)c1C2=O)C[C@@](O)(C(=O)CO)C[C@@H]3O[C@H]1C[C@H](N)[C@H](O)[C@H](C)O1 [Doxorubicin] + Cc1cc2ncnn2cc1Nc1ncc2c(n1)n(C1CCOCC1)c(=O)n2C [AZD7648] (first compound max 1 µM, 7x7, partner max 10 µM) is at least 0.02. class 1

Exam item: decide whether the reported Bliss excess for CCN(CCO)CCCOc1ccc2c(Nc3cc(CC(=O)Nc4cccc(F)c4)[nH]n3)ncnc2c1 [AZD2811] + C=CCn1c(=O)c2cnc(Nc3ccc(N4CCN(C)CC4)cc3)nc2n1-c1cccc(C(C)(C)O)n1 [AZD1775] (first compound max 1 µM, partner max 1 µM) is at least 0.02. class 1
